molecular target: PDE3A (Homo sapiens)
Sequence (Q14432 whole entry, species assumed): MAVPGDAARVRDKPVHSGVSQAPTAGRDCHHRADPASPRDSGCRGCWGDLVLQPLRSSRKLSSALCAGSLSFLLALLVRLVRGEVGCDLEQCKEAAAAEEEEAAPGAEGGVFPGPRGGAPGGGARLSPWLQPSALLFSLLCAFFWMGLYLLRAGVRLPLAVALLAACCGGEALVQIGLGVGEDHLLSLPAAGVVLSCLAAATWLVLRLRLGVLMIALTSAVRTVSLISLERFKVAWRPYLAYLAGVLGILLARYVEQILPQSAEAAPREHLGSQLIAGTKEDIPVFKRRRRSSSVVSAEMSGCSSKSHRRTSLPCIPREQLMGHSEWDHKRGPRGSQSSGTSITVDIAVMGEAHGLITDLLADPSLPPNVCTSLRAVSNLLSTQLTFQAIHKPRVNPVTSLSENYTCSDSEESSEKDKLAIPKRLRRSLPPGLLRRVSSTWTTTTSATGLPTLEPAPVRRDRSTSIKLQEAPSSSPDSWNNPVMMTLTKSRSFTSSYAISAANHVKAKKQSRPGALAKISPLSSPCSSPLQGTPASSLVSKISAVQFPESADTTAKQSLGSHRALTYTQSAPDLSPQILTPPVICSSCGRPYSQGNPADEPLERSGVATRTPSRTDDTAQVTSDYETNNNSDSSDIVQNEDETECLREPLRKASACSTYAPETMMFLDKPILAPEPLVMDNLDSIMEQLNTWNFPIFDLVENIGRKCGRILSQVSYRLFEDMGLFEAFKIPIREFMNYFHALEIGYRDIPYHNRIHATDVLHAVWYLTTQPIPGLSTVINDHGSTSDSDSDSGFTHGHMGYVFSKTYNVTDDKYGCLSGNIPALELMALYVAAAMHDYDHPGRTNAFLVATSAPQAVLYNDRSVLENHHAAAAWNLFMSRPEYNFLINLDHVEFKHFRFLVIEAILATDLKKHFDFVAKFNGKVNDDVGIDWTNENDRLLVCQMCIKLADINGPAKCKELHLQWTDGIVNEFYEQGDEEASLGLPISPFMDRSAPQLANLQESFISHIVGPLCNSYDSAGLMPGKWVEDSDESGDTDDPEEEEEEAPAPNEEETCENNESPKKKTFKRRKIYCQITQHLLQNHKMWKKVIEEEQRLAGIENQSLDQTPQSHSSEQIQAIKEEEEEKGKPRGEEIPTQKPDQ
recordedEndpoint: IC50

Query: Reported IC50 for Cn1cnc2c(=O)n(-c3cccnc3C3CC3)c3cc(Cl)ccc3c21 : what is it?
Response: > 10 µM
